# credit: patent US20150209343A1

Assay: Physicochemical properties of tazarotene
Settings: isopropyl myristate, oil or lipid; read-out: Solubility in isopropyl myristate
ENDPOINT_NAME: solubility (µg/mL)
Entry rule: numbers only, all in µg/mL.

# solubility (compound: CCOC(=O)c1ccc(C#Cc2ccc3c(c2)C(C)(C)CCS3)nc1 [Tazarotene] ) is 7400

###

Test: Physicochemical properties of tazarotene
Settings: water; read-out: Solubility in water
ENDPOINT_NAME: solubility

# solubility (molecule: CCOC(=O)c1ccc(C#Cc2ccc3c(c2)C(C)(C)CCS3)nc1 ) is < 1 µg/mL
